Hello, the source for this data is BigSolDB 2.1, in case you need it.

# assay-context: in n-butyl acetate, 298.15 K
quantity: solubility (mole fraction)
Write no unit; give the number alone.

GET /value?item= O=C(O)CCCc1c[nH]c2ccccc12 &field=solubility (mole fraction) returns 0.0797

* * *

# assay-context: in dimethyl carbonate, 288.15 K
quantity: solubility (mole fraction)
Enter a number only.

solubility (mole fraction) reading for O=C(O)CCCc1c[nH]c2ccccc12 : 0.022

* * *

# assay-context: in n-butanol, 323.15 K
quantity: solubility (mole fraction)
Just the number, please, no unit after it.

Short answer for O=C(O)CCCc1c[nH]c2ccccc12 : solubility (mole fraction) was 0.134

* * *

# assay-context: in isobutyl acetate, 303.15 K
quantity: solubility (mole fraction)
Reply briefly: the number, and no unit.

The reported value for O=C(O)CCCc1c[nH]c2ccccc12 in terms of solubility (mole fraction) is 0.0649
